Test system: barnyardgrass (Echinochloa crus-galli)
Test: Test A postemergence
Type: in vivo
Conditions: 125 g ai/ha, postemergence; visual injury rating on 0 to 100 scale (0 no effect, 100 complete control), approx. 10 d
Would you mind labelling by Barnyardgrass plant response rating? At or over 80 is yes (1), under is no (0).

Worked cases, answers included:
Qu. Exam item: decide whether the reported Barnyardgrass plant response rating for O=C1NCC(c2cc(F)cc(Cl)c2)C1C(=O)Nc1cccc(F)c1F (centres unmarked) is at least 80.
Ans. yes (1)

Qu. Exam item: decide whether the reported Barnyardgrass plant response rating for COC(=O)c1ccccc1NC(=O)C1C(=O)NCC1c1ccc(F)c(F)c1 (centres unmarked) is at least 80.
Ans. no (0)

Qu. Exam item: decide whether the reported Barnyardgrass plant response rating for O=C(Nc1cccc(F)c1F)C1C(=O)N(CC=CCl)CC1c1cccc(C(F)(F)F)c1 (centres unmarked) is at least 80.
Ans. no (0)

Qu. Exam item: decide whether the reported Barnyardgrass plant response rating for O=C1NCC(c2ccc(F)c(F)c2)C1C(=O)Nc1ccc(F)cc1Cl (centres unmarked) is at least 80.
Ans. no (0)

Qu. Exam item: decide whether the reported Barnyardgrass plant response rating for O=C1NCC(c2cccc(OCC(F)F)c2)C1C(=O)Nc1ccc(F)c(F)c1F (centres unmarked) is at least 80.
Ans. no (0)

Others:
Qu. Exam item: decide whether the reported Barnyardgrass plant response rating for O=C(Nc1cccc(F)c1F)C1C(=O)N(c2ccccc2)CC1c1cccc(C(F)(F)F)c1 (centres unmarked) is at least 80.
Ans. no (0)

Qu. Exam item: decide whether the reported Barnyardgrass plant response rating for CN1CC(c2ccc(C(F)(F)F)c(F)c2)C(C(=O)Nc2ccccc2S(C)(=O)=O)C1=O (centres unmarked) is at least 80.
Ans. no (0)

Qu. Exam item: decide whether the reported Barnyardgrass plant response rating for CN1CC(c2ccccc2)C(C(=S)Nc2ccccc2F)C1=O (centres unmarked) is at least 80.
Ans. no (0)

Qu. Exam item: decide whether the reported Barnyardgrass plant response rating for Cc1cc(NC(=O)C2C(=O)NCC2c2cccc(OC(F)F)c2)ccc1F (centres unmarked) is at least 80.
Ans. no (0)

Qu. Exam item: decide whether the reported Barnyardgrass plant response rating for Cc1cc(NC(=O)C2C(=O)NCC2c2ccc(F)c(F)c2)ccc1F (centres unmarked) is at least 80.
Ans. no (0)

Qu. Exam item: decide whether the reported Barnyardgrass plant response rating for Cc1cc(C2CN(C)C(=O)C2C(=O)Nc2ccc(F)cc2F)ccc1F (centres unmarked) is at least 80.
Ans. yes (1)

Qu. Exam item: decide whether the reported Barnyardgrass plant response rating for Cc1ccc(C2CNC(=O)C2C(=O)Nc2ccccc2F)c(F)c1 (racemic) is at least 80.
Ans. no (0)

Qu. Exam item: decide whether the reported Barnyardgrass plant response rating for CN1CC(c2ccc(Cl)cc2)C(C(=O)Nc2ccccc2F)C1=O (centres unmarked) is at least 80.
Ans. yes (1)

* * *

Catalogue of Plant response rating, Barnyardgrass readings, one per entry.
Tested on: barnyardgrass (Echinochloa crus-galli)
Assay: Test A preemergence
Assay type: in vivo
Conditions: 125 g ai/ha, Preemergence; visual injury after approximately 10 d; 0 to 100 scale where 0 is no effect and 100 is complete control

Example entries and their recorded answers appear below.
Qu. Returns the measured Plant response rating, Barnyardgrass for the input molecule. Input: O=C(Nc1ccccc1F)C1C(=O)N(C2C=CCCC2)CC1c1cccc(C(F)(F)F)c1 (centres unmarked) [Compound 524]
Ans. 20

Qu. Returns the measured Plant response rating, Barnyardgrass for the input molecule. Input: Cc1ccc(C2CNC(=O)C2C(=O)Nc2cccc(F)c2F)cc1C(F)(F)F (racemic) [Compound 679]
Ans. 80

Qu. Returns the measured Plant response rating, Barnyardgrass for the input molecule. Input: COc1cccc(NC(=O)C2C(=O)NCC2c2cccc(C(F)(F)F)c2)c1F (racemic) [Compound 674]
Ans. 60

Qu. Returns the measured Plant response rating, Barnyardgrass for the input molecule. Input: CN1CC(c2c(F)cccc2F)C(C(=O)Nc2cccc(F)c2F)C1=O (centres unmarked) [Compound 547]
Ans. 90

Qu. Returns the measured Plant response rating, Barnyardgrass for the input molecule. Input: O=C1NCC(c2cc(F)cc(Cl)c2)C1C(=O)Nc1ccc(F)cc1F (centres unmarked) [Compound 493]
Ans. 90

Others:
Qu. Returns the measured Plant response rating, Barnyardgrass for the input molecule. Input: CN1CC(c2cccc(C(F)(F)F)c2)C(C(=O)Nc2ccccc2S(C)(=O)=O)C1=O (centres unmarked) [Compound 637]
Ans. 90

Qu. Returns the measured Plant response rating, Barnyardgrass for the input molecule. Input: CN1CC(c2ccc(C(C)(F)F)cc2)C(C(=O)Nc2ccccc2F)C1=O (centres unmarked) [Compound 691]
Ans. 90

Qu. Returns the measured Plant response rating, Barnyardgrass for the input molecule. Input: O=C1NCC(c2cc(F)cc(Cl)c2)C1C(=O)Nc1cccc(F)c1F (centres unmarked) [Compound 492]
Ans. 90

* * *

Catalogue of Corn plant response rating (crop injury, 0 = no effect, 100 = complete kill) at 500 g/ha readings, one per entry.
Test system: corn (Zea mays)
Experiment: Test A postemergence
Type: in vivo
Conditions: Zea mays, post-emergence, 240 h, Postemergence, 500 g ai/ha; visual injury, 0 to 100 scale (0 no effect, 100 complete control), approx. 10 d
Numeric only. Scale: %

Example entries and their recorded answers appear below.
Qu. Returns the measured Corn plant response rating (crop injury, 0 = no effect, 100 = complete kill) at 500 g/ha for the input molecule. Input: CC(C)c1cccc([C@H]2CN(C)C(=O)[C@@H]2C(=O)Nc2cccc(F)c2F)c1 [Compound 1388]
Ans. 80

Qu. Returns the measured Corn plant response rating (crop injury, 0 = no effect, 100 = complete kill) at 500 g/ha for the input molecule. Input: Cc1ccc([C@H]2CNC(=O)[C@@H]2C(=O)Nc2c(F)cccc2F)cc1C [Compound 1247]
Ans. 0

Qu. Returns the measured Corn plant response rating (crop injury, 0 = no effect, 100 = complete kill) at 500 g/ha for the input molecule. Input: Cc1c(F)ccc([C@H]2CNC(=O)[C@@H]2C(=O)Nc2ccc(F)cc2F)c1F [Compound 1328]
Ans. 0

Others:
Qu. Returns the measured Corn plant response rating (crop injury, 0 = no effect, 100 = complete kill) at 500 g/ha for the input molecule. Input: CN1C[C@H](c2ccc(F)c(C#N)c2)[C@@H](C(=O)Nc2ccccc2F)C1=O [Compound 1254]
Ans. 50

Qu. Returns the measured Corn plant response rating (crop injury, 0 = no effect, 100 = complete kill) at 500 g/ha for the input molecule. Input: COc1cc(OC)cc([C@H]2CN(C)C(=O)[C@@H]2C(=O)Nc2cccc(F)c2F)c1 [Compound 1370]
Ans. 80

Qu. Returns the measured Corn plant response rating (crop injury, 0 = no effect, 100 = complete kill) at 500 g/ha for the input molecule. Input: O=C1NC[C@H](c2nccc(C(F)(F)F)n2)[C@H]1C(=O)Nc1cccc(F)c1F [Compound 1392]
Ans. 20

Qu. Returns the measured Corn plant response rating (crop injury, 0 = no effect, 100 = complete kill) at 500 g/ha for the input molecule. Input: CN1C[C@H](c2cccc(C(C)(F)F)c2)[C@@H](C(=O)Nc2ccccc2S(C)(=O)=O)C1=O [Compound 1318]
Ans. 80

Qu. Returns the measured Corn plant response rating (crop injury, 0 = no effect, 100 = complete kill) at 500 g/ha for the input molecule. Input: CS(=O)(=O)c1ccccc1NC(=O)[C@H]1C(=O)NC[C@@H]1c1ccc2c(c1)CCO2 [Compound 1320]
Ans. 0

* * *

Catalogue of pest or weed control at 250 g/ha readings, one per entry.
System: ducksalad (Heteranthera limosa)
Experiment: Test B flooded paddy test
Assay type: in vivo
Conditions: Heteranthera limosa, Flood, 250 g ai/ha; scale of 0 to 100 where 0 is no effect and 100 is complete control; read-out: Ducksalad plant response rating
Numeric only. Scale: %

Qu. Returns the measured pest or weed control at 250 g/ha for the input compound. Input: CN1CC[C@H](c2cccc(OC(F)(F)F)c2)[C@@H](C(=O)Nc2cccc(Cl)c2F)C1=O [Compound 810]
Ans. 90

Qu. Returns the measured pest or weed control at 250 g/ha for the input compound. Input: COc1cc([C@H]2CN(C)C(=O)[C@@H]2C(=O)Nc2cccc(F)c2F)ccc1C(F)(F)F [Compound 770]
Ans. 0

Qu. Returns the measured pest or weed control at 250 g/ha for the input compound. Input: CN1CC[C@@H](c2cccc(C(F)(F)F)c2)[C@H](C(=O)Nc2ccccc2F)C1=O [Compound 794]
Ans. 30

Others:
Qu. Returns the measured pest or weed control at 250 g/ha for the input compound. Input: Cc1cc([C@H]2CNC(=O)[C@@H]2C(=O)Nc2cccc(F)c2F)ccc1Cl [Compound 790]
Ans. 100
